# assay-system: human RBP4 (Homo sapiens, UniProt P02753)
measurement-name: IC50 (nM)

chem_smiles=O=C(c1c[nH]cn1)N1CCC(c2ccccc2C(F)(F)F)CC1 assay_system="human RBP4 (Homo sapiens, UniProt P02753)" value_unit=nM measured_number=5.68

Recorded values, source patent US9333202B2.
